Each recorded value in this set is attributed to patent US20090203667A1.

MEASURED METRIC: melting point

Examples with their reported melting point follow.
O=C(/C=C/C=C(c1ccc(C(F)(F)F)cc1)c1ccc(C(F)(F)F)cc1)Nc1cccc2cnccc12 164 to 166 °C
O=C(/C=C/C=C(c1ccc(C(F)(F)F)cc1)c1ccc(C(F)(F)F)cc1)Nc1cccc2ccc(O)cc12 249 to 251 °C
O=C(/C=C/C=C(c1ccc(C(F)(F)F)cc1)c1ccc(C(F)(F)F)cc1)Nc1cncc(CO)c1 255 to 257 °C
O=C(/C=C/C=C(\c1ccc(F)cc1)c1ccc(C(F)(F)F)cc1)Nc1cccc2cnccc12 142 to 143 °C
N#Cc1cccc(/C(=C\C=C\C(=O)Nc2cccc3cnccc23)c2ccc(C(F)(F)F)cc2)c1 118 to 119 °C

Then there is this molecule:
Indicate its recorded melting point; the molecule in question is `O=C(/C=C/C=C(\c1ccccc1)c1ccc(C(F)(F)F)cc1)Nc1cccc2cnccc12`
114 to 115 °C
